Tested on: SF-539 CNS
Assay: NCI tumour cell line growth inhibition, 48 h
Could you please report measured TGI for the items listed next?

Value wanted: TGI (SF-539 CNS) of entry `COc1ccc2c(c1)C(=O)c1c-2c(N(C)C)nc2ccccc12` > 100 µM

Value wanted: TGI (SF-539 CNS) of entry `C1CN(SSN2CCOCC2)CCO1` 80.7 µM

Value wanted: TGI (SF-539 CNS) of entry `COc1ccc2c(c1)c(CC(=O)O)c(C)n2C(=O)c1ccc(Cl)cc1` > 100 µM

Value wanted: TGI (SF-539 CNS) of entry `CC(C)(Oc1ccc(Cl)cc1)C(=O)N(C(=O)N1CCC(c2ccccc2)CC1)c1ccccc1` > 100 µM

Value wanted: TGI (SF-539 CNS) of entry `COc1cc(/C=C2/C[C@H]3[C@@H]4CC=C5C[C@@H](OC(C)=O)CC[C@]5(C)[C@H]4CC[C@]3(C)NC2=O)cc(OC)c1OC` 37.5 µM

Value wanted: TGI (SF-539 CNS) of entry `CN1CCN(CCCBr)CC1` > 100 µM

Value wanted: TGI (SF-539 CNS) of entry `CC[C@H](CO)Nc1nc(NCc2ccccc2)n2ncc(C(C)C)c2n1` 3.62 µM

Value wanted: TGI (SF-539 CNS) of entry `CCc1cccc(C)c1NC(=O)C(=O)Cc1nc2ccccc2s1` > 100 µM

Value wanted: TGI (SF-539 CNS) of entry `CN(C(=O)c1ccco1)C(=S)N1CCN(c2ccccc2)CC1` > 100 µM

Value wanted: TGI (SF-539 CNS) of entry COC(=O)C1=CC2C(=O)OC1CC2C#N (configuration not stated) > 100 µM

Value wanted: TGI (SF-539 CNS) of entry `Cc1ccc(S(=O)(=O)Nc2cccc3[nH]c(C(F)(F)F)nc23)cc1` 2.06 µM

Value wanted: TGI (SF-539 CNS) of entry `COc1c(Cl)cc(NC(=S)C#N)cc1Cl` 59 µM

Value wanted: TGI (SF-539 CNS) of entry `Oc1c([Si](c2ccccc2)(c2ccccc2)c2ccccc2)cc2ccccc2c1-c1c(O)c([Si](c2ccccc2)(c2ccccc2)c2ccccc2)cc2ccccc12` > 100 µM

Value wanted: TGI (SF-539 CNS) of entry `c1ccc2c(c1)CCc1c-2n(CCN2CCOCC2)c2ccccc12` > 100 µM

Value wanted: TGI (SF-539 CNS) of entry COc1ccc(C(C#N)Cc2cc(OC)c(OC)c(OC)c2)cc1 (configuration not stated) > 100 µM

Value wanted: TGI (SF-539 CNS) of entry `CC1(C)CC(=O)c2c(nc3ccc4ccccc4c3c2-c2ccc(NC(=O)CCCCCCCCC(=O)Nc3ccc(-c4c5c(nc6ccc7ccccc7c46)CC(C)(C)CC5=O)cc3)cc2)C1` > 100 µM

Value wanted: TGI (SF-539 CNS) of entry [N-]=[N+]=NC(CI)c1cn([C@H]2C[C@H](O)[C@@H](CO)O2)c(=O)[nH]c1=O (some centres not stated) > 100 µM

* * *

System: KM12 colon
Test: NCI tumour cell line growth inhibition, 48 h; in the data active = GI50 below about 0.43 µM; inactive = the rest
Your answer must be one of the following: YES (active), NO (inactive)

Query: recorded result category for `Cc1c2c(nn1C)CSCc1cc(n(C)n1)CSc1cc(c3ccccc3c1)OCCCc1c(C(=O)O)n(C)c3c-2c(Cl)ccc13` in this test NO

Query: recorded result category for C[C@@H]1CC[C@H]2C(C(O)CCCCC(O)C3=C(C(F)(F)F)O[C@@H]4O[C@@]5(C)CC[C@H]6[C@H](C)CC[C@@H]3[C@@]46OO5)=C(C(F)(F)F)O[C@@H]3O[C@@]4(C)CC[C@@H]1[C@]32OO4 (stereo partly drawn) in this test NO

Query: recorded result category for `COc1ccc(C(=O)c2cc3c(N)c(C(=O)Nc4cccc5ccccc45)sc3nc2C)cc1` in this test YES

Query: recorded result category for COc1ccc(C2SC(C)C(=O)N2NC(=O)C(O)c2ccccc2)cc1OC (stereo not drawn) in this test NO

Query: recorded result category for CN(C)c1ccc2c(c1)OC(N)=C(C#N)C2c1ccc2c(c1)CCO2 (stereo not drawn) in this test YES

Query: recorded result category for `Cc1ccc(CNc2c3ccccc3nc3cc(NC(=O)CCN4CCCC4)ccc23)cc1` in this test NO

Query: recorded result category for `CN1CC[C@@H](c2c(O)cc(O)c3c(=O)cc(-c4ccccc4Cl)oc23)[C@@H]1CO` in this test YES

Query: recorded result category for `CCCOC(=O)N1CCN(/[N+]([O-])=N/Oc2ccc([N+](=O)[O-])cc2[N+](=O)[O-])CC1` in this test NO

* * *

Tested on: TK-10 renal
Test: NCI tumour cell line growth inhibition, 48 h
metric: TGI

Value wanted: TGI (TK-10 renal) of entry `c1ccc2c(c1)CCc1c-2n(CCN2CCOCC2)c2ccccc12` > 100 µM

Value wanted: TGI (TK-10 renal) of entry `CCOc1ccccc1N=Nc1c(C)[nH]n(-c2nc(-c3ccccc3)cs2)c1=O` > 94.2 µM

Value wanted: TGI (TK-10 renal) of entry `O=C1C(=O)c2ccccc2C(O)=C1CCCc1ccc(Oc2ccccc2)cc1` > 100 µM

Value wanted: TGI (TK-10 renal) of entry `O=C(Nc1nc2ccccc2s1)c1cc([N+](=O)[O-])ccc1Cl` > 100 µM

Value wanted: TGI (TK-10 renal) of entry C=C1C(=O)OC2/C=C(/C)C(OC(C)=O)CC(O)/C(C)=C\C(OC(=O)/C(C)=C\C)C12 (stereo not given) > 100 µM

Value wanted: TGI (TK-10 renal) of entry `O=C(NN1C(=O)CSC12CCCC2)c1[nH]c2ccc(Br)cc2c1-c1ccccc1` > 100 µM

Value wanted: TGI (TK-10 renal) of entry `CCOC(=O)C(=Cc1cccnc1C)C(=O)OCC` 25.5 µM

Value wanted: TGI (TK-10 renal) of entry `Cc1ccc2c(c1C)C(=O)/C(=C/c1ccccc1C(=O)O)C2` > 100 µM

Value wanted: TGI (TK-10 renal) of entry `COc1ccc(C2=NN(c3ccccc3)C[N+](c3ccc(OC)cc3)=N2)cc1` > 100 µM

Value wanted: TGI (TK-10 renal) of entry `O=C1c2ccccc2-c2c1c1ccccc1c(=O)n2CCN1CCOCC1` > 100 µM

Value wanted: TGI (TK-10 renal) of entry `C=C1c2[nH]c3c([N+](=O)[O-])c(OC)ccc3c2CCN1C(C)=O` > 100 µM

Value wanted: TGI (TK-10 renal) of entry COc1cc2c(cc1OC)C(Cl)C(c1ccc(Cl)c(Cl)c1)=C2Cl (stereo not given) 48.7 µM

Value wanted: TGI (TK-10 renal) of entry `O=C(c1cc(Cl)ccc1Cl)N1CCN(C(=O)c2cc(Cl)ccc2Cl)CC1` > 100 µM

Value wanted: TGI (TK-10 renal) of entry `O=CN/C=C/c1ccc(O)c(O)c1` > 100 µM

Value wanted: TGI (TK-10 renal) of entry c1cn(C23C4C5C6C4C2C6C53)cn1 (stereo not given) > 100 µM

Value wanted: TGI (TK-10 renal) of entry `NC(=S)N/N=C/c1ncccc1N` > 100 µM

Value wanted: TGI (TK-10 renal) of entry `CCc1cccc(C)c1NC(=O)C(=O)Cc1nc2ccccc2s1` > 100 µM

Value wanted: TGI (TK-10 renal) of entry `CCOC(=O)c1cnc2oc3ccc(O)cc3c2c1-c1ccccc1` > 100 µM

Value wanted: TGI (TK-10 renal) of entry `CCCOC(=O)N1CCN(/[N+]([O-])=N/Oc2ccc([N+](=O)[O-])cc2[N+](=O)[O-])CC1` 14.9 µM

Value wanted: TGI (TK-10 renal) of entry `CCOC(=O)Cc1cc(OC)c(OC)cc1/C(Cl)=C(\C=O)c1ccc(OC)c(OC)c1` 90.8 µM

* * *

Test system: A549 NSCLC
Assay: NCI tumour cell line growth inhibition, 48 h
Could you please report measured TGI for the items listed next?

Would you mind telling me what TGI value was observed for `NC(=O)c1c(NC(=O)c2ccc3c(c2)OCO3)sc2c1CCC(=O)C2` ? > 100 µM

Would you mind telling me what TGI value was observed for `CC(=O)c1c(C(F)(F)F)n([O-])c2cc(Cl)c(Cl)cc2[n+]1=O` ? 1.91 µM

Would you mind telling me what TGI value was observed for CC1=C2C(=CC(C)(C)C2O)C(=O)C(C)(O)C12CC2 (stereo not drawn) ? 0.277 µM

Would you mind telling me what TGI value was observed for CCCCCC(C)SC1(C(=O)OC)CC(OC(C)=O)C(NC(C)=O)C([C@H](OC(C)=O)[C@@H](COC(C)=O)OC(C)=O)O1 (stereo partly drawn) ? > 100 µM

Would you mind telling me what TGI value was observed for C[CH2][Sn]([CH2]C)([O]C(=O)C(OC(C)=O)c1ccccc1)[O]C(=O)C(OC(C)=O)c1ccccc1 (stereo not drawn) ? > 100 µM

Would you mind telling me what TGI value was observed for `CCOC(=O)c1nc2ccc(C(F)(F)F)cc2nc1Oc1cc(OC)cc(OC)c1` ? > 100 µM

Would you mind telling me what TGI value was observed for COc1c2c(nc3ccccc13)-c1cc3c(c(=O)n1C2)COC(=O)C3(O)CC(=O)N1CCOCC1 (stereo not drawn) ? > 92.4 µM

Would you mind telling me what TGI value was observed for [N-]=[N+]=NC(CI)c1cn([C@H]2C[C@H](O)[C@@H](CO)O2)c(=O)[nH]c1=O (stereo partly drawn) ? > 100 µM

Would you mind telling me what TGI value was observed for `C[Si](C)(C)c1ccc(-c2sc(-c3ccc([Si](C)(C)C)s3)c3c2C[Si]2(C3)Cc3c(-c4ccc([Si](C)(C)C)s4)sc(-c4ccc([Si](C)(C)C)s4)c3C2)s1` ? > 100 µM

Would you mind telling me what TGI value was observed for `Cc1ccc(Nc2nc(C)c(C(/C=C/c3ccc(/C=C/C(=N/NC(=O)C[n+]4ccccc4)c4sc(Nc5ccc(C)cc5[N+](=O)[O-])nc4C)cc3)=N\NC(=O)C[n+]3ccccc3)s2)c([N+](=O)[O-])c1` ? > 100 µM

Would you mind telling me what TGI value was observed for Cc1ccc(N2C(=O)C3C=CC(n4[nH]c(=O)n(Cc5ccccc5)c4=O)CC3C2=O)cc1 (stereo not drawn) ? > 100 µM

Would you mind telling me what TGI value was observed for `O=S1(=O)OCCOS(=O)(=O)C1Cc1ccccc1` ? > 100 µM

Would you mind telling me what TGI value was observed for `COc1ccc(C(=O)c2cc3c(N)c(C(=O)Nc4cccc5ccccc45)sc3nc2C)cc1` ? > 50 µM

Would you mind telling me what TGI value was observed for `CCOC(=O)c1cnc2oc3ccc(O)cc3c2c1-c1ccccc1` ? > 100 µM

Would you mind telling me what TGI value was observed for `O=C(OCCN=c1c2ccccc2ccc2ccccc12)c1ccc([N+](=O)[O-])cc1` ? > 100 µM

Would you mind telling me what TGI value was observed for `CC1(c2ccc[n+](Cc3ccccc3)c2)OCCO1` ? > 100 µM

Would you mind telling me what TGI value was observed for `COc1ccc(OC)c(-c2c(C#N)c(N)nc(N3CCOCC3)c2C#N)c1` ? > 100 µM

Would you mind telling me what TGI value was observed for `CC1(C)CC(C)(C)C1=NNC(N)=O` ? > 100 µM

Where do the numbers come from? From PubChem BioAssay (NCI).
